Test system: MES SA/Dx cells (doxorubicin-resistant uterine sarcoma line, MDR1 upregulated)
Test: In vitro cell killing by calicheamicin and linker-drug constructs (CellTiter-Glo, 72 hours)
Assay type: cell-based
Details: SMALL MOLECULE IVK (10 nM start, 5X dilutions), listed as N acetyl calicheamicin (lot B)
Description: 293 T cells were used along with MES SA and MES SA/Dx cells which comprise uterine sarcoma lines purchased from ATCC. […] The cells were cultured in a T75 flask to ˜50-80% confluency and harvested with trypsin into a single cell suspension. […] CellTiter-Glo allows for relative enumeration of metabolically active cells by quantifying intracellular ATP concentrations. […]
Measured Property: IC50 (nM)
Quick note: give the figure in nM, leave out the unit.

Memo: CCN(C(C)=O)[C@H]1CO[C@@H](O[C@H]2[C@H](O[C@H]3C#C/C=C\C#C[C@]4(O)CC(=O)C(NC(=O)OC)=C3/C4=C\CSSSC)O[C@H](C)[C@@H](NO[C@H]3C[C@H](O)[C@H](SC(=O)c4c(C)c(I)c(O[C@@H]5O[C@@H](C)[C@H](O)[C@@H](OC)[C@H]5O)c(OC)c4OC)[C@@H](C)O3)[C@@H]2O)C[C@@H]1OC , reported IC50: 17.1

---

Test system: MES SA/Dx cells (doxorubicin-resistant uterine sarcoma line, MDR1 upregulated)
Experiment: In vitro cell killing by calicheamicin and linker-drug constructs (CellTiter-Glo, 72 hours)
Type: cell-based
Conditions: LINKER DRUG IVK (1000 nM start, 10X dilutions)
pIC50: −log10 of the molar value.
Measured Property: pIC50

Memo: CCN(C(C)=O)[C@H]1CO[C@@H](O[C@H]2[C@H](O[C@H]3C#C/C=C\C#C[C@]4(O)CC(=O)C(NC(=O)OC)=C3/C4=C\CSSC(C)(C)CCC(=O)NCCNC(=O)OCc3ccc(NC(=O)[C@H](CCCNC(N)=O)NC(=O)[C@@H](NC(=O)CCCCCN4C(=O)C=CC4=O)C(C)C)cc3)O[C@H](C)[C@@H](NO[C@H]3C[C@H](O)[C@H](SC(=O)c4c(C)c(I)c(O[C@@H]5O[C@@H](C)[C@H](O)[C@@H](OC)[C@H]5O)c(OC)c4OC)[C@@H](C)O3)[C@H]2O)C[C@@H]1OC [Val-Cit calicheamicin] , reported pIC50: < 6.00

All figures here come from patent US20180133337A1.
